Test system: human sdLDL
METHOD SUMMARY: Copper-induced sdLDL oxidation, TBARS (Example 7)
Assay type: biochemical
RECORDED CONDITIONS: 10 μM; 1 hour
PARAMETER: effect on sdLDL oxidation as compared to vehicle-treated controls

{"COMPOUND": "Cc1ccc(C)c(OCCCC(C)(C)C(=O)O)c1 [gemfibrozil]", "MEAS VALUE": "no significant effect"}
{"COMPOUND": "Cc1c(C)c2c(c(C)c1O)CC[C@@](C)(CCC[C@H](C)CCC[C@H](C)CCCC(C)C)O2 [vitamin E, α-tocopherol]", "MEAS VALUE": "no significant effect"}
{"COMPOUND": "O=C(O)c1cccnc1 [niacin, nicotinic acid]", "MEAS VALUE": "no significant effect"}
